Tested on: soybean
Assay: Test B pre/postemergence soybean
Type: in vivo, Glycine max
Conditions: Postemergence, Rate 125 g/ha; scale of 0 to 10 where 0 is no effect and 10 is complete control
Answer each item with its documented Soybean plant response rating.
The reply should be a number, written without any unit.

Exercise: Param readout = Soybean plant response rating; param system = soybean; param query = Cc1ccccc1Cn1c(=O)on(C(=O)N(c2ccc(F)cc2)C(C)C)c1=O ; response: value
Key: 1

Exercise: And CCOP(=O)(OCC)C(C)n1c(=O)on(C(=O)N(c2ccc(Cl)cc2)C(C)C)c1=O (stereo not shown) ?
Key: 0

Exercise: And C=CCn1c(=O)on(C(=O)N(c2ccccc2)C(C)C)c1=O ?
Key: 5

Exercise: And Cc1cnn(C)c1-n1c(=O)on(C(=O)N(c2ccc(F)cc2)C(C)C)c1=O ?
Key: 4

###

Answer each item with its documented Plant response rating, B. signalgrass.
Tested on: surinam grass
Assay: Test B pre/postemergence surinam grass
Assay type: in vivo, Brachiaria decumbens
Conditions: Preemergence, Rate 125 g/ha; scale 0 to 10 (0 no effect, 10 complete control)
The reply should be a number, written without any unit.

Exercise: Look up Plant response rating, B. signalgrass for this compound: Cc1cccc(C)c1-n1c(=O)on(C(=O)N(c2ccccc2)C(C)C)c1=O
Key: 0

Exercise: And CC(C)N(C(=O)n1oc(=O)n(C2CCCCC2)c1=O)c1ccc(F)cc1 ?
Key: 7

Exercise: And Cc1ccccc1-n1c(=O)on(C(=O)N(c2ccc(C#N)cc2)C(C)C)c1=O ?
Key: 0

Exercise: And CCN(C(=O)n1oc(=O)n(-c2c(C)cc(C)cc2C)c1=O)C1CCCCC1 ?
Key: 0

###

System: purple nutsedge
Experiment: Test B pre/postemergence purple nutsedge
Type: in vivo, Cyperus rotundus
Conditions: Preemergence, Rate 125 g/ha
Procedure: […] At the same time, these crop and weed species were also treated with postemergence applications of test chemicals formulated in the same manner. […] Treated plants and controls were maintained in a greenhouse for twelve to sixteen days, after which all species were compared to controls and visually evaluated. […]
experimental readout: Nutsedge plant response rating (0 to 10 scale)

Exercise: Param readout = Nutsedge plant response rating (0 to 10 scale); param system = purple nutsedge; param query = Cc1nsc(Cl)c1Cn1c(=O)on(C(=O)N(c2ccc(F)cc2)C(C)C)c1=O ; response: value
Key: 0

Exercise: And CC(C)C(C)n1c(=O)on(C(=O)N(c2ccc(F)cc2)C(C)C)c1=O (stereo not shown) ?
Key: 0

Exercise: And CC(C)N(C(=O)n1oc(=O)n(C2CCC2)c1=O)c1ccc(Cl)cc1 ?
Key: 0

Exercise: And CC(C)N(C(=O)n1oc(=O)n(-c2ccc3ccccc3c2)c1=O)c1ccc(F)cc1F ?
Key: 0

Exercise: And Cc1c(-n2c(=O)on(C(=O)N(c3ccc(F)cc3)C(C)C)c2=O)ccc2ccccc12 ?
Key: 0

Exercise: And CC(C)N(C(=O)n1oc(=O)n(C2CCCCCC2)c1=O)c1ccc(Cl)cc1 ?
Key: 0

Exercise: And CC(C)N(C(=O)n1oc(=O)n(C(C)CCl)c1=O)c1ccc(F)cc1 (stereo not shown) ?
Key: 0

###

Test system: corn
Test: Test B pre/postemergence corn
Assay type: in vivo, Zea mays
Conditions: Rate 250 g/ha, Postemergence; scale of 0 to 10 where 0 is no effect and 10 is complete control
experimental readout: Plant response rating, Corn
The reply should be a number, written without any unit.

Exercise: Look up Plant response rating, Corn for this molecule: CC(C)N(C(=O)n1oc(=O)n(C2CC3CCC2C3)c1=O)c1ccc(F)cc1F (stereo not drawn)
Key: 0

Exercise: And CC(C)N(C(=O)n1oc(=O)n(CCCN(C)C)c1=O)c1ccc(F)cc1 ?
Key: 0

Exercise: And CC(C)N(C(=O)n1oc(=O)n(CCCCF)c1=O)c1ccccc1 ?
Key: 5

Exercise: And Cc1cccc(C)c1-n1c(=O)on(C(=O)N(c2ccc(Cl)cc2Cl)C2CCC2)c1=O ?
Key: 0

Exercise: And CC(C)N(C(=O)n1oc(=O)n(CC2CC2)c1=O)c1ccccc1 ?
Key: 4

Exercise: And COC(=O)CCCn1c(=O)on(C(=O)N(c2ccccc2)C(C)C)c1=O ?
Key: 0

###

Test system: bedstraw
Assay: Test B pre/postemergence bedstraw
Format: in vivo, Galium aparine
Conditions: Preemergence, Rate 62 g/ha; scale 0 to 10 (0 no effect, 10 complete control)
experimental readout: Bedstraw plant response rating
The reply should be a number, written without any unit.

Exercise: Look up Bedstraw plant response rating for this molecule: CC(C)N(C(=O)n1oc(=O)n(CC2CCCCO2)c1=O)c1ccc(F)cc1 (stereo not drawn)
Key: 0

Exercise: And CC(C)=CCn1c(=O)on(C(=O)N(c2ccc(Cl)cc2)C(C)C)c1=O ?
Key: 0

Exercise: And Cc1nn(C)c(C)c1-n1c(=O)on(C(=O)N(c2ccccc2)C(C)C)c1=O ?
Key: 0

Exercise: And Cc1noc(C)c1-n1c(=O)on(C(=O)N(c2ccc(F)cc2)C(C)C)c1=O ?
Key: 0

Exercise: And CC(C)N(C(=O)n1oc(=O)n(CC2=NOCCC2)c1=O)c1ccc(F)cc1 ?
Key: 0

Exercise: And CC(Cl)=CCn1c(=O)on(C(=O)N(c2ccccc2)C(C)C)c1=O ?
Key: 0

Exercise: And CC(C)N(C(=O)n1oc(=O)n(Cc2cccs2)c1=O)c1ccc(F)cc1 ?
Key: 0

Exercise: And Cc1nn(C)c(C)c1-n1c(=O)on(C(=O)N(c2ccc(F)cc2)C(C)C)c1=O ?
Key: 0

Exercise: And CCN(CC)C(=O)n1oc(=O)n(-c2cccc3c2CCCC3)c1=O ?
Key: 0

###

System: giant foxtail
Assay: Test B pre/postemergence giant foxtail
Assay type: in vivo, Setaria faberii
Details: Postemergence, Rate 500 g/ha; scale of 0 to 10 where 0 is no effect and 10 is complete control
Answer each item with its documented Giant foxtail plant response rating.
The reply should be a number, written without any unit.

Exercise: Look up Giant foxtail plant response rating for this compound: Cc1nc(Cl)sc1C(C)n1c(=O)on(C(=O)N(c2ccc(Cl)cc2)C(C)C)c1=O (stereo not drawn) [Compound 406]
Key: 0

Exercise: And CC(C)N(C(=O)n1oc(=O)n(CNC(=O)c2ccccc2)c1=O)c1ccc(F)cc1 [Compound 445] ?
Key: 2

Exercise: And CC(C)N(C(=O)n1oc(=O)n(C(C)CCl)c1=O)c1ccc(F)cc1F (stereo not drawn) [Compound 408] ?
Key: 9

Exercise: And CC(C)N(C(=O)n1oc(=O)n(CCCl)c1=O)c1ccc(Cl)cc1 [Compound 474] ?
Key: 8

Exercise: And COC(CCl)n1c(=O)on(C(=O)N(c2ccc(Cl)cc2)C(C)C)c1=O (stereo not drawn) [Compound 458] ?
Key: 9

Exercise: And CC(C)Cn1c(=O)on(C(=O)N(c2ccc(Cl)cc2)C(C)C)c1=O [Compound 417] ?
Key: 8

###

System: pigweed
Assay: Test B pre/postemergence pigweed
Type: in vivo, Amaranthus retroflexus
Conditions: Rate 125 g/ha; Postemergence; scale 0 to 10, 0 no effect, 10 complete control
Answer each item with its documented Redroot pigweed plant response rating.
The reply should be a number, written without any unit.

Exercise: Param readout = Redroot pigweed plant response rating; param system = pigweed; param query = COc1ccc(-n2c(=O)on(C(=O)N(C3=CCOCC3)C(C)C)c2=O)cc1 ; response: value
Key: 0

Exercise: And Cc1cccc(C)c1-n1c(=O)on(C(=O)N(c2ccccc2)C(C)C)c1=O ?
Key: 0

Exercise: And CC(C)Oc1cc(-n2c(=O)on(C(=O)N(c3ccc(F)cc3)C(C)C)c2=O)c(Cl)cc1Cl ?
Key: 2

Exercise: And CC(C)N(C(=O)n1oc(=O)n(Cc2cccs2)c1=O)c1ccc(F)cc1 ?
Key: 3

###

System: blackgrass
Assay: Test B pre/postemergence blackgrass
Format: in vivo, Alopecurus myosuroides
Settings: Preemergence, Rate 250 g/ha
Answer each item with its documented Blackgrass plant response rating (0 to 10 scale).

Exercise: Param readout = Blackgrass plant response rating (0 to 10 scale); param system = blackgrass; param query = CCc1nc(C)c(C(C)n2c(=O)on(C(=O)N(c3ccc(F)cc3F)C(C)C)c2=O)s1 (stereo not drawn) ; response: value
Key: 0

Exercise: And COC(=O)CCCn1c(=O)on(C(=O)N(c2ccccc2)C(C)C)c1=O ?
Key: 0

Exercise: And COCn1c(=O)on(C(=O)N(c2ccc(Cl)cc2)C(C)C)c1=O ?
Key: 9

###

System: rape
Test: Test B pre/postemergence rape
Type: in vivo, Brassica napus
Details: Postemergence, Rate 500 g/ha; scale of 0 to 10 where 0 is no effect and 10 is complete control
experimental readout: Plant response rating, Rape
The reply should be a number, written without any unit.

Exercise: Look up Plant response rating, Rape for this compound: CCc1nc(C)c(C(C)n2c(=O)on(C(=O)N(c3ccc(F)cc3F)C(C)C)c2=O)s1 (stereo not shown) [Compound 589]
Key: 2

Exercise: And CC(C)N(C(=O)n1oc(=O)n(CCCC#N)c1=O)c1ccc(F)cc1 [Compound 647] ?
Key: 7

Exercise: And CC(Cl)=CCn1c(=O)on(C(=O)N(c2ccccc2)C(C)C)c1=O [Compound 573] ?
Key: 2

Exercise: And CCOC(=O)C=C(Cn1c(=O)on(C(=O)N(c2ccccc2)C(C)C)c1=O)OCC [Compound 578] ?
Key: 4
